Catalogue of pEC50 values
- targetDesc: TRAP1 enzyme (Homo sapiens)
- Construct: 150 nM Trap1 enzyme was incubated with various concentrations of the test compound
- testDetails: ADP Glo assay of TRAP1 ATPase activity
- Format: biochemical
- conditionsUsed: concentration for half maximal activation; read-out: ADP GLO DRC: GeoMean EC50
pEC50: −log10 of the molar value.

Example compounds with recorded pEC50:
| compound | targetDesc | result |
| --- | --- | --- |
| COc1ncc(NC(=O)c2csc(-c3ccccc3)n2)cc1S(=O)(=O)Nc1c(C)nn(C)c1C | TRAP1 enzyme (Homo sapiens) | 4.00 to 4.70 |
| COc1ncc(NC(=O)c2coc(-c3ccccc3)n2)cc1S(=O)(=O)Nc1ncc(Cl)cc1C | TRAP1 enzyme (Homo sapiens) | 4.00 to 4.70 |
| COc1ncc(NC(=O)c2ncc(-c3ccccc3)o2)cc1S(=O)(=O)Nc1c(C(C)C)ccnc1C(C)C | TRAP1 enzyme (Homo sapiens) | 4.70 to 5.00 |
| COc1ncc(NC(=O)c2ncc(-c3ccccc3)o2)cc1S(=O)(=O)Nc1cccc(C(F)(F)F)n1 | TRAP1 enzyme (Homo sapiens) | 4.00 to 4.70 |
| COc1ncc(NC(=O)c2csc3c2C2CCN3CC2)cc1S(=O)(=O)Nc1ccc(Cl)cc1 | TRAP1 enzyme (Homo sapiens) | 4.70 to 5.00 |
| O=C(Nc1cc(S(=O)(=O)Nc2ccc(Cl)cc2)ccn1)c1cnc(-c2ccccc2)[nH]1 | TRAP1 enzyme (Homo sapiens) | 4.70 to 5.00 |
| COc1ncc(NC(=O)c2ncc(-c3ccccc3)o2)cc1S(=O)(=O)Nc1ccc2c(n1)CCC2 | TRAP1 enzyme (Homo sapiens) | 4.00 to 4.70 |
| COc1ncc(NC(=O)c2csc(-c3ccccc3)n2)cc1S(=O)(=O)Nc1c(C#N)cnn1C | TRAP1 enzyme (Homo sapiens) | 4.00 to 4.70 |
| COc1ncc(NC(=O)c2ncc(-c3ccccc3)o2)cc1S(=O)(=O)Nc1cc2ccccc2nc1C | TRAP1 enzyme (Homo sapiens) | 4.00 to 4.70 |
| COc1ncc(NC(=O)c2ncoc2C)cc1S(=O)(=O)Nc1ccc(Cl)cc1 | TRAP1 enzyme (Homo sapiens) | 4.70 to 5.00 |

Look up and state reported pEC50 for `COc1ncc(NC(=O)c2cccc3c2OC(C)(C)C3)cc1S(=O)(=O)Nc1c(C)cccc1C`
4.00 to 4.70

Look up and state reported pEC50 for COc1ncc(NC(=O)C(C)n2cc(Br)cn2)cc1S(=O)(=O)Nc1ccc(Cl)cc1 (stereo not drawn)
4.00 to 4.70

Look up and state reported pEC50 for `COc1ncc(NC(=O)c2ncc(-c3ccccc3)o2)cc1S(=O)(=O)Nc1nc(C(C)(C)C)ns1`
4.00 to 4.70

Look up and state reported pEC50 for `COc1ncc(NC(=O)c2csc3c2CN(C(=O)OC(C)(C)C)CC3)cc1S(=O)(=O)Nc1c(C)cccc1C`
> 5.00

Look up and state reported pEC50 for `COc1ncc(NC(=O)c2noc3c2CCCC3)cc1S(=O)(=O)Nc1ccc(Cl)cc1`
4.00 to 4.70

---

Catalogue of Emax values
- targetDesc: TRAP1 enzyme (Homo sapiens, UniProt Q12931)
- Construct: 150 nM Trap1 enzyme was incubated with various concentrations of the test compound
- Sequence (Q12931 60-704): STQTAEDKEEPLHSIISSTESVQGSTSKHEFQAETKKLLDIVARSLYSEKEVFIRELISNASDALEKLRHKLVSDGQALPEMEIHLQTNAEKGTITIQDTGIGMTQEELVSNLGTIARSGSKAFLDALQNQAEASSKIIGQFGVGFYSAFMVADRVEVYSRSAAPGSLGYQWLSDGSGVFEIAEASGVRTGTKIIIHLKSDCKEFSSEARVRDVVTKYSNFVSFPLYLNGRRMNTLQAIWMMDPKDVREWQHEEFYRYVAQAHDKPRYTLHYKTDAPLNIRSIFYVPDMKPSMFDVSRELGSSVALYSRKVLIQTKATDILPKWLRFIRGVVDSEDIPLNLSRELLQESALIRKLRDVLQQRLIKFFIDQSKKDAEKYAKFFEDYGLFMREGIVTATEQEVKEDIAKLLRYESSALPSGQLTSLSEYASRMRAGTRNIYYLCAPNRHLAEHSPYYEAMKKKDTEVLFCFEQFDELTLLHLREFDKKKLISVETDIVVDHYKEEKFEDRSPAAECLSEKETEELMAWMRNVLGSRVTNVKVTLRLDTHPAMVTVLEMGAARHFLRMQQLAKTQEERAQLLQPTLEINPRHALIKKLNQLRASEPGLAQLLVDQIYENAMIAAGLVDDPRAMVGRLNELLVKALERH
- testDetails: ADP Glo assay of TRAP1 ATPase activity
- Format: biochemical
- conditionsUsed: maximal percent activation; read-out: ADP GLO DRC: Mean Emax

Example molecules with recorded Emax:
| chemicalString | testReadout | result |
| --- | --- | --- |
| COc1ncc(NC(=O)c2ccc3nc(C)sc3c2)cc1S(=O)(=O)Nc1c(C)cccc1C | Emax | 200 to 300% |
| COc1ncc(NC(=O)c2cccc3ncn(C)c23)cc1S(=O)(=O)Nc1c(C)cccc1C | Emax | 160 to 199% |
| COc1ncc(NC(=O)c2csc(-c3ccccc3)n2)cc1S(=O)(=O)Nc1c(C)cccc1C | Emax | 200 to 300% |
| COc1ncc(NC(=O)c2csc(-c3cc(F)c(F)c(F)c3)n2)cc1S(=O)(=O)Nc1cc(C)n(C(C)C)n1 | Emax | 119 to 159% |

Look up and state reported Emax for `COc1ncc(NC(=O)c2csc(-c3ccccc3)n2)cc1S(=O)(=O)Nc1nnn(Cc2ccccc2)n1`
200 to 300%

Look up and state reported Emax for `COc1ncc(NC(=O)c2csc(-c3ccncc3)n2)cc1S(=O)(=O)Nc1c(C)cccc1C`
119 to 159%

---

- targetDesc: TRAP1 enzyme (Homo sapiens, UniProt Q12931)
- Construct: 150 nM Trap1 enzyme was incubated with various concentrations of the test compound
- testDetails: ADP Glo assay of TRAP1 ATPase activity
- Assay type: biochemical
- conditionsUsed: concentration for half maximal activation; read-out: ADP GLO DRC: GeoMean EC50
pEC50: −log10 of the molar value.
Catalogue of pEC50 values

Example molecules with recorded pEC50:
| molecule | targetDesc | pEC50 |
| --- | --- | --- |
| COc1ncc(NC(=O)c2ncc(-c3ccccc3)o2)cc1S(=O)(=O)Nc1cc(C)n(C(C)C)n1 [compound 1571] | TRAP1 enzyme (Homo sapiens, UniProt Q12931) | 4.70 to 5.00 |
| COc1ncc(NC(=O)c2cccc(-n3cncn3)c2)cc1S(=O)(=O)Nc1ccc(Cl)cc1 [compound 1204] | TRAP1 enzyme (Homo sapiens, UniProt Q12931) | 4.70 to 5.00 |
| COc1ncc(NC(=O)c2csc(-c3ccccc3)n2)cc1S(=O)(=O)Nc1sc2c(c1C#N)CCCC2 [compound 2088] | TRAP1 enzyme (Homo sapiens, UniProt Q12931) | 4.00 to 4.70 |
| Cc1cnc(NC(=O)c2ncc(-c3ccccc3)o2)cc1S(=O)(=O)Nc1ccc(Cl)cc1 [compound 1390] | TRAP1 enzyme (Homo sapiens, UniProt Q12931) | 4.70 to 5.00 |
| COc1ncc(NC(=O)c2coc(-c3ccccc3)n2)cc1S(=O)(=O)Nc1cccc2cnc(C)cc12 [compound 2447] | TRAP1 enzyme (Homo sapiens, UniProt Q12931) | 4.70 to 5.00 |
| COc1ncc(NC(=O)c2coc(-c3ccccc3)n2)cc1S(=O)(=O)Nc1cc(F)c(F)cc1C [compound 2002] | TRAP1 enzyme (Homo sapiens, UniProt Q12931) | 4.70 to 5.00 |

Look up and state reported pEC50 for COc1ncc(NC(=O)c2ncc(-c3ccccc3)o2)cc1S(=O)(=O)Nc1sc2c(c1C#N)CCCC2 [compound 1519]
4.70 to 5.00

Look up and state reported pEC50 for COc1ncc(NC(=O)c2cn(C)c3ncccc23)cc1S(=O)(=O)Nc1c(C)cccc1C [compound 1395]
4.00 to 4.70

Look up and state reported pEC50 for CCc1cccc(CC)c1NS(=O)(=O)c1cc(NC(=O)c2csc(-c3ccccc3)n2)cnc1OC [compound 1418]
> 5.00

Look up and state reported pEC50 for CCOc1cc(NS(=O)(=O)c2cc(NC(=O)c3csc(-c4ccccc4)n3)cnc2OC)ccn1 [compound 1773]
4.00 to 4.70

Look up and state reported pEC50 for COc1ncc(NC(=O)c2coc(-c3ccccc3)n2)cc1S(=O)(=O)Nc1c(C)ccc(C#N)c1C [compound 2072]
> 5.00

Look up and state reported pEC50 for COc1ncc(NC(=O)c2cnc(-c3ccccc3)o2)cc1S(=O)(=O)Nc1cccc(C(F)(F)F)n1 [compound 2397]
4.00 to 4.70

Look up and state reported pEC50 for COc1ccc(F)cc1C(=O)Nc1cnc(OC)c(S(=O)(=O)Nc2c(C)cccc2C)c1 [compound 1990]
4.70 to 5.00

Look up and state reported pEC50 for COc1ncc(NC(=O)c2csc(-c3ccccc3)n2)cc1S(=O)(=O)Nc1cc(C)no1 [compound 1784]
4.00 to 4.70

Look up and state reported pEC50 for COc1ncc(NC(=O)c2coc(-c3ccccc3)n2)cc1S(=O)(=O)Nc1ccc(F)cc1C(C)C [compound 2381]
> 5.00

---

Catalogue of activation at 50 µM values
- targetDesc: TRAP1 enzyme (Homo sapiens, UniProt Q12931)
- Construct: 150 nM Trap1 enzyme was incubated with various concentrations of the test compound
- testDetails: ADP Glo assay of TRAP1 ATPase activity
- Format: biochemical
- conditionsUsed: 1 h; compound concentration 50 μM; read-out: ADP-Glo Percent Activation at 50 μM

Example compounds with recorded activation at 50 µM:
| chemicalString | targetDesc | result |
| --- | --- | --- |
| COc1ncc(NC(=O)c2cc(NC(C)=O)ccc2Cl)cc1S(=O)(=O)Nc1c(C)cccc1C | TRAP1 enzyme (Homo sapiens, UniProt Q12931) | 151 to 180% |
| COc1ncc(NC(=O)c2ccno2)cc1S(=O)(=O)Nc1c(C)cccc1C | TRAP1 enzyme (Homo sapiens, UniProt Q12931) | 120 to 150% |
| COc1ncc(NC(=O)c2ccc(F)cc2)cc1S(=O)(=O)Nc1c(C)cccc1C | TRAP1 enzyme (Homo sapiens, UniProt Q12931) | 151 to 180% |

Look up and state reported activation at 50 µM for `COc1ncc(NC(=O)c2ncco2)cc1S(=O)(=O)Nc1c(C)cccc1C`
120 to 150%

Look up and state reported activation at 50 µM for `COc1ncc(NC(=O)c2ccc(N3CCN(C)CC3)nc2)cc1S(=O)(=O)Nc1c(C)cccc1C`
181 to 352%

Look up and state reported activation at 50 µM for `COc1ncc(NC(=O)c2ccc(NC(C)=O)cc2)cc1S(=O)(=O)Nc1c(C)cccc1C`
181 to 352%

# credit: patent US20230159509A1
